The reader will find reported AUC(0-t) values listed item by item below.
# Experiment: AUC(0 to t) in Sprague-Dawley rat at 2 mg/kg, po
# Type: ADME, organism-based
# Condition Set: in vivo
Answer format: numeric, ng·h/mL implied, no suffix.

Molecule | AUC(0-t), ng·h/mL
C=CC(=O)Nc1cccc(Nc2nc(Nc3ccc(OCCOC)cc3)ncc2[S+](C)[O-])c1 (racemic) | 73

get_value(item= C=CC(=O)Nc1cccc(-n2c(=O)n(C)c3cnc(Nc4ccc(Oc5ccnc(C(=O)NC)c5)cc4)nc32)c1 , readout=AUC(0-t)) returns 100

get_value(item= C=CC(=O)Nc1cccc(-n2c(=O)n(C)c3cnc(Nc4ccc(OCCOC)cc4)nc32)c1 , readout=AUC(0-t)) returns 27

----------
The reader will find reported remaining at 4 h, 1 µM values listed item by item below.
# Experiment: Metabolic stability in Beagle dog plasma assessed as remaining compound at 1 uM after 4 hrs by LC-MS/MS analysis
# Type: ADME, cell-free, Canis lupus familiaris
# Condition Set: read-out: Stability
Answer format: number, then unit.

get_value(item= C=CC(=O)Nc1cccc(-n2c(=O)n(C)c3cnc(Nc4ccc(OCCOC)cc4)nc32)c1 , readout=remaining at 4 h, 1 µM) returns 16.2%

get_value(item= C=CC(=O)Nc1cccc(Nc2nc(Nc3ccc(OCCOC)cc3)ncc2[S+](C)[O-])c1 (racemic) , readout=remaining at 4 h, 1 µM) returns 94.3%

get_value(item= C=CC(=O)Nc1cccc(-n2c(=O)n(CC3CC3)c3cnc(Nc4ccc(N5CCOCC5)cc4)nc32)c1 , readout=remaining at 4 h, 1 µM) returns 93.4%

// provenance: ChEMBL document CHEMBL3784966
